The values you see were collected from PubChem BioAssay (NCI).

Listed next: entries and their corresponding GI50.
Tested on: OVCAR-4 ovarian
assay_overview: NCI tumour cell line growth inhibition, 48 h
quantity_measured: GI50

compound | measured_value
CCC(C)n1cc(C)c2c(C(=O)NCc3c(C)cc(C)[nH]c3=O)cc(Br)cc21 (stereo unspecified) | 37.2 µM
NC(CSC(c1ccccc1)(c1ccccc1)c1ccc(Cl)cc1)C(=O)O (stereo unspecified) | 11.1 µM
CS(=O)CCCCCN=C=S (stereo unspecified) | 5.11 µM
CC(=O)N1CC(Nc2ccc(OC(F)(F)F)cc2)=CC1=O | 4.84 µM
CC(C)CCOc1ccc(-c2n[nH]c(C(F)(F)F)c2-c2cncc(C#N)c2)c(O)c1 | 3.48 µM
NC(=NCCCOc1ccc(Cl)cc1)Nc1ccc(Cl)cc1 | 2.3 µM
